# Target Or System: T1, CGH-1_(248–420) E396A (C. elegans, UniProt Q95YF3 248-420, E396A)
# T1 construct: Mutant of m1 made with the MutanBEST kit; source: E. coli Gold (DE3), purified (Ni-chelating resin, SEC Superdex 75)
# T1 sequence (looked up): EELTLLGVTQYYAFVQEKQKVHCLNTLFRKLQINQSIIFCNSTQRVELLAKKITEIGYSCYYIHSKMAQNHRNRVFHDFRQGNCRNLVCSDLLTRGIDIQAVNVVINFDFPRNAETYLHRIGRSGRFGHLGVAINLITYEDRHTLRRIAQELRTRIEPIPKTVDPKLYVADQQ
# Test Description: ITC; ligand (peptide or CAR-1 fragment, 0.5 mM) injected into CGH-1_(248-420) or mutant (0.05 mM) in the cell; 20 °C; Buffer B (20 mM Tris-HCl pH 7.5, 150 mM NaCl); one-binding-site model
# Recorded Conditions: both partners purified

[
  {
    "Binder": "SDEDHNIFDDEFDAANDETFGGGLDNIGENAELENYAT (PATR-1 (Pat1 ortholog), C. elegans, residues 30-67; Printed with free NH2 and COOH ends; also called PATR1_30-67^WT; CePATR-1 peptide; source: synthetic peptide (GL Biochem, Shanghai)) [PATR-1 peptide (CePATR-1_(30–67))]",
    "Kd / nM": 2960
  }
]
